// data source = patent US10131653B2

Measured inhibition at 10 µM accompanies every entry in the list below.
- TARGET_OR_TEST_SYSTEM: human OX2 receptor (Homo sapiens)
- Construct: expressed in transfected cells; host or cells: CHO cells
- Sequence (O43614 whole entry): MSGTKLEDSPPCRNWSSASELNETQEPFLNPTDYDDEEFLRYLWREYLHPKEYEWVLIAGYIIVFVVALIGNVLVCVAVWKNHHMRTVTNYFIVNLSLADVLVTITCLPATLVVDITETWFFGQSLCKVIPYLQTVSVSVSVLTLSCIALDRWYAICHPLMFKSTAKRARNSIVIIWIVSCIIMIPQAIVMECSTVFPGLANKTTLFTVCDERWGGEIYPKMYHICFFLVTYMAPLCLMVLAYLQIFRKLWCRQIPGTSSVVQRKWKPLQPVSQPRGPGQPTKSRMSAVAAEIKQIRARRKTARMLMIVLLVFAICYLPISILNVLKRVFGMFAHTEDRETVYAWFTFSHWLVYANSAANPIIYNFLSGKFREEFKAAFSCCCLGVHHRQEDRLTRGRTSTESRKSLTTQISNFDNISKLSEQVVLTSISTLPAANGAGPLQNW
- EXPERIMENT_NOTES: Measurement of orexin receptor antagonistic activity (calcium fluorescence, FLIPRtetra)
- Assay type: cell-based
- TEST_SETTINGS: CHO, 10 μM test compound; CHO cells expressing human OX2 receptor; OX-A 0.3 nM; read-out: Human Orexin2 receptor inhibition (at 10 μM)
Where a name gives a salt, the structure may show the parent alone.
Give the number; % is assumed, so skip it.

Some solved entries appear below for comparison.
COMPOUND	inhibition at 10 µM, %
Cc1cc(N2CCN(C(=O)c3ccc(Br)cc3-n3nccn3)C[C@H](C)O2)nc(C)n1 [Example 205]	100
COc1ccc(Cl)c(C(=O)N2CCON(c3nc(C)cc(C)n3)CC2)c1 [Example 52]	96
Cc1cc(N2CCN(C(=O)c3ccccc3-c3cccs3)CCO2)nc(C)n1 [Example 23, hydrochloride]	101
Cc1nc(N2CCN(C(=O)c3cc(Cl)ccc3-n3nccn3)C[C@H](C)O2)cc(C(F)(F)F)n1 [Example 3]	100
Cc1cc(N2CCN(C(=O)c3cc(Cl)ccc3-n3nccn3)C[C@H](C)O2)nc(C)n1 [Example 102]	101

Request: I'm curious: which inhibition at 10 µM was measured for CCc1ccnc(N2CCN(C(=O)c3ccccc3-n3nccn3)[C@H](C)CO2)n1 [Example 151] tested on human OX2 receptor (Homo sapiens)?
Response: 98

Request: And what about the compound Cc1nc(N2C[C@H](C)N(C(=O)c3cc(Cl)ccc3-n3nccn3)[C@H](C)CO2)cc(C(F)(F)F)n1 [Example 183] ?
Response: 103

Request: And what about the compound Cc1cc(N2CCN(C(=O)c3ccccc3-c3nc(C)cs3)C[C@H](C)O2)nc(C)n1 [Example 110] ?
Response: 95

Request: And what about the compound Cc1nc(N2CCN(C(=O)c3ccccc3-c3nc(C)no3)C[C@H](C)O2)cc(C(F)(F)F)n1 [Example 111] ?
Response: 100

Request: And what about the compound Cc1cc(N2CCN(C(=O)c3ccccc3-c3ncccn3)[C@H](C)CO2)nc(C)n1 [Example 213] ?
Response: 102

Request: And what about the compound Cc1nccc(N2CCN(C(=O)c3ccccc3-c3ncccn3)C[C@H](C)O2)n1 [Example 206] ?
Response: 100

Request: And what about the compound Cc1cc(N2CCN(C(=O)c3cc(F)c(F)cc3-c3ncccn3)[C@H](C)CO2)nc(C)n1 [Example 231] ?
Response: 103

Request: And what about the compound Cc1ccc(-n2nccn2)c(C(=O)N2[C@H](C)CON(c3cc(C)nc(C(F)(F)F)n3)C[C@@H]2C)c1 [Example 177] ?
Response: 106

Request: And what about the compound Cc1cc(C)nc(N2CCN(C(=O)c3ccccc3-c3nccs3)C[C@H](C)O2)c1 [Example 91] ?
Response: 100

Request: And what about the compound COCC1CN(C(=O)c2ccccc2-n2nccn2)CCN(c2cc(C)nc(C)n2)O1 (stereo not shown) [Example 113] ?
Response: 102

Request: And what about the compound Cc1cc(C)nc(N2CCN(C(=O)c3cccc(-c4ccccc4)c3)CCO2)n1 [Example 78] ?
Response: 52
